B1: Mineralocorticoid receptor, residues 600 to 675; numbered along this chain, P08235 (parent)
chain: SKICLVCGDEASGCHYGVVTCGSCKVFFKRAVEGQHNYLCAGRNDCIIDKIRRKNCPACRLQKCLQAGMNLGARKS

Variants of: B1
Experiment: abundance fitness (aPCA) (normalised: wild type 0, dead -1); higher = more abundant; growth selection in yeast, the domain comes from the species named
Details: Homo sapiens
metric_name: abundance fitness
Please state the value as a number alone, without comment.

Some solved cases for reference:
mutant_label | recorded_value
G22V | -0.093
R52S | -0.04
I47D | -0.065
H15I | -0.131
V26K | 0.008

// query I'd like to know its abundance fitness. The variant in question is A11L
// result -0.16

// query Item under review: I47Q . Reported abundance fitness?
// result -0.024

// provenance: the Human Domainome abundance scans (Beltran et al. 2025)
